The entries below are paired with their reported heart frequency after.
- System: mongrel cats
- Assay Info: Inotropic and heart-circulatory effectiveness on narcotised cats, intravenous
- Type: in vivo, cat
- Reported Conditions: 1.00 mg/kg i.v.; 6 animals
The figure you give is taken to be in min⁻¹; do not add the unit.

• O=[N+]([O-])O[C@H]1CO[C@H]2[C@@H]1OC[C@@H]2NCCCCCc1ccccc1 = 196.0
• O=[N+]([O-])O[C@H]1CO[C@H]2[C@@H]1OC[C@@H]2NCCCCc1ccccc1 = 197.7
• O=[N+]([O-])O[C@H]1CO[C@H]2[C@@H]1OC[C@@H]2NCCCOc1ccccc1 = 194.3

Q: Tell me the measured heart frequency after of O=[N+]([O-])O[C@H]1CO[C@H]2[C@@H]1OC[C@@H]2NCC(O)COc1cccc2ccccc12 (stereo partly shown) , please.
Result: 172.0

Q: What do you have for "CN(CCCOc1ccccc1)[C@H]1CO[C@H]2[C@@H]1OC[C@@H]2O[N+](=O)[O-]" ?
Result: 172.0

Q: What do you have for N#Cc1ccccc1OCC(O)CN[C@H]1CO[C@H]2[C@@H]1OC[C@@H]2O[N+](=O)[O-] (stereo partly shown) ?
Result: 191.7

Q: What do you have for CCOc1ccccc1OCC(O)CN[C@H]1CO[C@H]2[C@@H]1OC[C@@H]2O[N+](=O)[O-] (stereo partly shown) ?
Result: 187.0
